assay.method.text: CREB reporter modulators without forskolin, primary screen, cell-based, PC12, CRE-LacZ reporter, unstimulated (AID 1145)
condition.description: no forskolin, luminescence, 4.5 h, higher = more signal, called active from +8 up or from −8 down
measured.endpoint: z-score

compound=O=C(CS)NCCCCCNC(=O)[C@@H]1C[C@@H]2C(=O)N[C@@H](Cc3ccccc3)C(=O)N2[C@@H]1c1cccc(OCCO)c1 measured_endpoint=z-score experimental_result=0.7
compound=C=CCOC(=O)[C@H]1[C@@H]2C(=O)O[C@@H](c3ccccc3)[C@@H](c3ccccc3)N2[C@@H](c2ccc(OCCOC(=O)[C@H]3C[C@H]4C(=O)N[C@@H](CCCCNC(C)=O)C(=O)N4[C@H]3c3cccc(OCCO)c3)cc2)[C@]12C(=O)Nc1ccc(I)cc12 measured_endpoint=z-score experimental_result=0.557
compound=[N-]=[N+]=NCc1ccccc1[C@@H]1OC(c2ccc(OCCCO)cc2)=N[C@]1(Cc1ccccc1N=[N+]=[N-])C(=O)NCCN1CCOCC1 measured_endpoint=z-score experimental_result=0.895
compound=CC(C)CNC(=O)[C@@]1(C)c2ccccc2C(=O)N(Cc2cc(C(F)(F)F)cc(C(F)(F)F)c2)[C@H]1c1ccc(CO)cc1 measured_endpoint=z-score experimental_result=0.414
compound=COCC(=C=CC[C@@H](O)c1ccc(OCCO)cc1)CCO measured_endpoint=z-score experimental_result=0.0986
compound=COCCOC(=O)N1C(=O)[C@@]2(c3ccccc31)[C@H](c1ccccc1OCCO)N1[C@H](c3ccccc3)[C@H](c3ccccc3)OC(=O)[C@H]1[C@@H]2C(=O)N1CCCCCCC1 measured_endpoint=z-score experimental_result=-0.744
compound=Cc1ccc(S[C@]2(C(=O)NC(C)C)CC(=O)N(C(C)C)[C@@H]2c2ccc(CO)cc2I)cc1 measured_endpoint=z-score experimental_result=0.324
compound=C=C[C@@H](C)[C@@H](OC(=O)Nc1ccc(SC)cc1)c1ccc(OCCO)cc1 measured_endpoint=z-score experimental_result=0.236
compound=Cc1ccc(S[C@]2(C(=O)NCc3ccccc3)CC(=O)N(Cc3cc(C(F)(F)F)cc(C(F)(F)F)c3)[C@@H]2c2ccc(CO)cc2I)cc1 measured_endpoint=z-score experimental_result=0.479
compound=C=CCNC(=O)[C@H]1[C@@H]2C(=O)O[C@@H](c3ccccc3)[C@@H](c3ccccc3)N2[C@@H](c2ccc(OCCO)cc2)[C@]12C(=O)N(C(=O)OCCOC)c1ccc(C#Cc3ccc(OC)cc3)cc12 measured_endpoint=z-score experimental_result=-1.43
compound="COC(=O)C1=CC(CCCO)=CC(C)N(Cc2cccc(OC(F)(F)F)c2)C=C1C(=O)OC (stereo unspecified)" measured_endpoint=z-score experimental_result=-0.168
compound=CCCCC(=C=CC[C@H](O)c1ccc(OCCO)cc1)C[C@H](O)COCc1ccccc1 measured_endpoint=z-score experimental_result=10.3
compound=Cc1nc2cc(Br)ccc2c(=O)n1Cc1cccc(O)c1 measured_endpoint=z-score experimental_result=-1.11
compound="CC(C)N1CC=CC23O[C@@H]4/C=C\\CCCOC(=O)C4[C@H]2C(=O)N(CCCCCCO)[C@@H]3C1=O (stereo partly specified)" measured_endpoint=z-score experimental_result=-0.48
compound=C=CC[C@H](OC(=O)Nc1ccc(SC)cc1)c1ccc(OCCO)cc1 measured_endpoint=z-score experimental_result=8.61
compound="CC(C)c1ccc(NN2C(C(O)Cc3ccccc3)C=CC3C(=O)N(c4ccccc4)C(=O)C32)cc1 (stereo unspecified)" measured_endpoint=z-score experimental_result=0.243

###

assay.method.text: yeast growth modulation, basal conditions, primary screen, YJM789 clinical isolate, OD600, 24 h (AID 1089);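 also: growth of clinical yeast isolate S. cerevisiae YJM 789 seeded 1000 cells per well; test concentration not given here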
condition.description: S. cerevisiae YJM789 growth, higher = more signal, called active from +8 up or from −8 down
Activity calls are given as the source filed them.
Item-by-item account of z-score
measured.endpoint: z-score

molecule=O=C(O)[C@H]1C[C@H]2C(=O)N[C@@H](Cc3ccccc3)C(=O)N2[C@H]1c1cccc(OCCO)c1 measured_endpoint=z-score experimental_result="0.893 (inactive)"
molecule=CCCC=C(CCC)[C@@H](NC(=O)CCc1ccccc1)c1ccc(C(F)(F)F)cc1 measured_endpoint=z-score experimental_result="-0.296 (inactive)"
molecule="C=CCC(OC(C)=O)[C@@H]1[C@@H](N(Cc2cccc3ccccc23)C(=O)c2ccc(-c3ccccc3)cc2)c2cc(OCCCO)ccc2N1C(=O)c1ccc(-c2ccccc2)cc1 (stereo partly drawn)" measured_endpoint=z-score experimental_result="-1.05 (inactive)"
molecule=C[C@]1(C(=O)NCCN2CCOCC2)c2ccccc2C(=O)N(Cc2cc(F)cc(C(F)(F)F)c2)[C@H]1c1ccc(CO)cc1 measured_endpoint=z-score experimental_result="0.006 (inactive)"
molecule="CN1C(=O)C2C(C1=O)C1C=C(CCCO)C2C(C2CC2)N1Cc1cc2c(cc1Br)OCO2 (stereo not drawn)" measured_endpoint=z-score experimental_result="-3.43 (inactive)"
molecule="CN1C(=O)C2C=CC(C(O)c3ccc(I)cc3)N(Nc3ccccc3)C2C1=O (stereo not drawn)" measured_endpoint=z-score experimental_result="-0.228 (inactive)"
molecule=CCCC=C(CCC)[C@@H](NS(=O)(=O)c1cccc2cccnc12)c1ccc(-c2ccccc2)cc1 measured_endpoint=z-score experimental_result="-0.221 (inactive)"
molecule=O=C1c2ccccc2[C@](Cc2ccccc2I)(C(=O)NC2CC2)[C@H](c2ccc(CO)cc2)N1Cc1ccccc1C(F)(F)F measured_endpoint=z-score experimental_result="-0.124 (inactive)"
molecule="CCC(CC)C(O)C1C=CC2C(=O)N(c3ccccc3)C(=O)C2N1Nc1ccc([N+](=O)[O-])cc1 (stereo not drawn)" measured_endpoint=z-score experimental_result="-0.255 (inactive)"
molecule="CC(C)C[C@@H]1NC(=O)[C@@]23C(=O)N[C@@H](Cc4ccccc4)C2[C@H](C)[C@@]2(C)O[C@H]2C3/C=C/C/C=C\\CNC(=O)[C@@H](C)NC1=O (stereo partly drawn)" measured_endpoint=z-score experimental_result="-0.939 (inactive)"
molecule=CCCCC(=O)N(CCN1CCOCC1)[C@@H]1CC(C(=O)NCCO)=C[C@H](Oc2c(I)cc(CO)cc2OC)[C@H]1O measured_endpoint=z-score experimental_result="0.0164 (inactive)"
molecule=NC(=O)[C@H]1[C@@H]2C(=O)O[C@@H](c3ccccc3)[C@@H](c3ccccc3)N2[C@@H](c2ccc(O)cc2)[C@]12C(=O)Nc1ccc(C#CC3=CCCCC3)cc12 measured_endpoint=z-score experimental_result="1.42 (inactive)"
molecule="CC(C)CCC[C@@H](C)[C@H]1CC[C@@]2(C)C3=C(CC[C@]12C)[C@@]1(C)CC[C@H](OC(=O)c2ccccc2)C(C)(C)C1CC3 (stereo partly drawn)" measured_endpoint=z-score experimental_result="-1.9 (inactive)"
molecule="CC(C)C[C@@H]1NC(=O)CNC(=O)[C@@]23C(=O)N[C@@H](Cc4ccccc4)C2[C@H](C)[C@@]2(C)O[C@H]2C3/C=C/C/C=C\\CNC1=O (stereo partly drawn)" measured_endpoint=z-score experimental_result="-0.536 (inactive)"
molecule=COc1ccc(C#Cc2ccc3c(c2)[C@]2(C(=O)N3)[C@H](C(=O)N3CCCCCCC3)[C@H]3C(=O)O[C@H](c4ccccc4)[C@H](c4ccccc4)N3[C@@H]2c2ccc(O)cc2)cc1 measured_endpoint=z-score experimental_result="-0.0118 (inactive)"
molecule=O=C(NCCN1CCOCC1)[C@@H]1c2ccccc2C(=O)N(Cc2ccccc2)[C@H]1c1ccc(CO)cc1 measured_endpoint=z-score experimental_result="-0.0009 (inactive)"
molecule="CC(C)c1ccc(NN2C(C(O)Cc3ccccc3)C=CC3C(=O)N(c4ccccc4)C(=O)C32)cc1 (stereo not drawn)" measured_endpoint=z-score experimental_result="-0.619 (inactive)"
molecule="CC(C)OC(=O)CC(=O)CC(O)c1ccc([N+](=O)[O-])cc1 (stereo not drawn)" measured_endpoint=z-score experimental_result="-0.0857 (inactive)"
molecule=CC(C)CNC(=O)[C@@H]1c2ccccc2C(=O)N(C2CCCCC2)[C@H]1c1ccc(CO)cc1 measured_endpoint=z-score experimental_result="-0.417 (inactive)"
molecule="C=CCC(OC(C)=O)[C@@H]1[C@@H](N(Cc2cccc3ccccc23)C(=O)c2cccc3ccccc23)c2cc(OCCCO)ccc2N1C(=O)c1ccc2ccccc2c1 (stereo partly drawn)" measured_endpoint=z-score experimental_result="-0.55 (inactive)"
molecule=C=C(COC)/C(=C/C[C@H](OC(C)=O)c1cccc(OCCO)c1)c1cnc2ccccc2c1 measured_endpoint=z-score experimental_result="1.25 (inactive)"
molecule=COCCOC(=O)N1C(=O)[C@@]2(c3cc(C#CCC(C(=O)OC)C(=O)OC)ccc31)[C@H](c1ccc(O)cc1)N1[C@H](c3ccccc3)[C@H](c3ccccc3)OC(=O)[C@H]1[C@@H]2C(=O)NC[C@H](O)c1ccccc1 measured_endpoint=z-score experimental_result="0.326 (inactive)"
molecule=Nc1cc(Br)ccc1C(=O)O measured_endpoint=z-score experimental_result="-0.585 (inactive)"
molecule="COc1cc(NN2C(C(O)c3ccccc3)C=CC3C(=O)N(C)C(=O)C32)cc(OC)c1OC (stereo not drawn)" measured_endpoint=z-score experimental_result="0.679 (inactive)"
molecule=COCCOC(=O)N1C(=O)[C@@]2(c3ccccc31)[C@H](c1ccccc1OCCO)N1[C@H](c3ccccc3)[C@H](c3ccccc3)OC(=O)[C@H]1[C@@H]2C(N)=O measured_endpoint=z-score experimental_result="1.83 (inactive)"
molecule=COCCOC(=O)N1C(=O)[C@@]2(c3cc(C#CC4=CCCCC4)ccc31)[C@H](C(=O)N1CCCCCCC1)[C@H]1C(=O)O[C@H](c3ccccc3)[C@H](c3ccccc3)N1[C@@H]2c1ccc(OCCO)cc1 measured_endpoint=z-score experimental_result="0.175 (inactive)"
molecule="O=C1OCC=C[C@H]2OC34C=CCN(c5ccc6ccccc6c5)C(=O)[C@H]3N(CCCCCO)C(=O)[C@@H]4[C@@H]12 (stereo partly drawn)" measured_endpoint=z-score experimental_result="-0.594 (inactive)"
molecule=NC(=O)NCC#Cc1ccc2c(c1)[C@]1(C(=O)N2)[C@H](C(=O)N2CCN(c3ncccn3)CC2)[C@H]2C(=O)O[C@H](c3ccccc3)[C@H](c3ccccc3)N2[C@@H]1c1ccc(OCCO)cc1 measured_endpoint=z-score experimental_result="2.47 (inactive)"
